assay system: human P-selectin (Homo sapiens)
Construct: IgG-Fc (fusion partner); purchased R&D Systems Europe Ltd., Abingdon, United Kingdom
Sequence (P16109 with tags, fused parts or gaps limits assumed): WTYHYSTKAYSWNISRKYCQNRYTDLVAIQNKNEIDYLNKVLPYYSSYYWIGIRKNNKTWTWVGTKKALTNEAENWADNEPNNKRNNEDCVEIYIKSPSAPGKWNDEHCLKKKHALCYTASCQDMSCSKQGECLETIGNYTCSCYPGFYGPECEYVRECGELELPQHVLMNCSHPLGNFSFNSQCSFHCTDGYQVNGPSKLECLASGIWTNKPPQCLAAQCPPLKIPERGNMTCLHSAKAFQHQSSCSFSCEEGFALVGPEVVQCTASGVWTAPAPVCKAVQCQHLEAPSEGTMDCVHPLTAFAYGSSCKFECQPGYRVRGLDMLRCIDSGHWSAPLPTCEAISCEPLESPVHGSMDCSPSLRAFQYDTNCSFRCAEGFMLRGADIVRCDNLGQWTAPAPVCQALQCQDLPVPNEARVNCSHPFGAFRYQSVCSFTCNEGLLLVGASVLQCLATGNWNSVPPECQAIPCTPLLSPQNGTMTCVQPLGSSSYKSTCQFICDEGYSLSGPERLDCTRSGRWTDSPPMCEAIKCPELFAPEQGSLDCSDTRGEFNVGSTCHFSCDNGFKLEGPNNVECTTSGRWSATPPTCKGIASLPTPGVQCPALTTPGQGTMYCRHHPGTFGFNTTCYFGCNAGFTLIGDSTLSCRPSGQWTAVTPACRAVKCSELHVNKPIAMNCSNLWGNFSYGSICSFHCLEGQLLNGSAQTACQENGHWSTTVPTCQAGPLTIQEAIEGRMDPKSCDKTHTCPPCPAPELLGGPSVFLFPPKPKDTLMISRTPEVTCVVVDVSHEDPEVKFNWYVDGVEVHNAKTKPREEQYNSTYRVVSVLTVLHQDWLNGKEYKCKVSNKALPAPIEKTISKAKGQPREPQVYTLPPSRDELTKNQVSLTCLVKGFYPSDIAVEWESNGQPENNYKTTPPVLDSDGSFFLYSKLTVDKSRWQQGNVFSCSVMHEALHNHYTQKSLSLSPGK
test: Competition assay with TM11-PO (competition ELISA)
Assay type: binding
condition details: Table 1; derivatised peptides HPij; inhibition of TM11-PO binding to human P-selectin; read-out: IC50
pIC50: −log10 of the molar value. Numbered stars: 1 amine (or outer) side, 2 acyl side, 3 side chain; on linkers, the order of the positions; unused ones are H or OH. Square brackets hold non-standard residues; d marks the D form. Peptide text beside a SMILES is read from it. * marks the point of attachment. Trimesoyl = O=C(c1cc(C(=O)[*:2])cc(C(=O)[*:3])c1)[*:1]; 1Naphthoyl = O=C(c1cccc2ccccc12)*; Galloyl = O=C(c1cc(O)c(O)c(O)c1)*; Bz = O=C(c1ccccc1)*; X1 = CN(C)CCCC(=O)*; GABA = NCCCC(=O)O
Reported pIC50 values for the following compounds.
recorded metric: pIC50

1. CC(C)[C@H](NC(=O)[C@H](CC(=O)O)NC(=O)[C@@H](NC(=O)[C@H](Cc1c[nH]c2ccccc12)NC(=O)[C@H](CCC(=O)O)NC(=O)c1cc(O)c(O)c(O)c1)C(C)C)C(=O)N[C@@H](CCCCNC(=O)CCCN(C)C)C(=O)NCCCC(=O)O [HP62] (Galloyl-EWVDVK(X1)[GABA]-OH)
6.55
2. CC(C)[C@H](NC(=O)[C@H](CC(=O)O)NC(=O)[C@@H](NC(=O)[C@H](Cc1c[nH]c2ccccc12)NC(=O)[C@H](CCC(=O)O)NC(=O)c1cc(C(=O)O)cc(C(=O)O)c1)C(C)C)C(=O)N[C@@H](CCCCNC(=O)c1ccccc1)C(=O)NCCCC(=O)O [HP17] (Trimesoyl-EWVDVK(Bz)[GABA]-OH)
6.35
3. CC(C)[C@H](NC(=O)[C@H](CC(=O)O)NC(=O)[C@@H](NC(=O)[C@H](Cc1c[nH]c2ccccc12)NC(=O)[C@H](CCC(=O)O)NC(=O)c1cc(O)c(O)c(O)c1)C(C)C)C(=O)N[C@@H](CCCCN)C(=O)NCCCC(=O)O [HP60] (Galloyl-EWVDVK[GABA]-OH)
5.96
4. CC(C)[C@H](NC(=O)[C@H](CC(=O)O)NC(=O)[C@@H](NC(=O)[C@H](Cc1c[nH]c2ccccc12)NC(=O)[C@H](CCC(=O)O)NC(=O)c1cc(C(=O)O)cc(C(=O)O)c1)C(C)C)C(=O)N[C@@H](CCCCNC(=O)c1cccc2ccccc12)C(=O)NCCCC(=O)O [HP14] (Trimesoyl-EWVDVK(1Naphthoyl)[GABA]-OH)
5.99
5. CC(C)[C@H](NC(=O)[C@H](CC(=O)O)NC(=O)[C@@H](NC(=O)[C@H](Cc1c[nH]c2ccccc12)NC(=O)[C@@H](N)CCC(=O)O)C(C)C)C(=O)N[C@@H](CCCCNC(=O)c1cc(O)c(O)c(O)c1)C(=O)NCCCC(=O)O [HP06] (H-EWVDVK(Galloyl)[GABA]-OH)
5.22
